Record form. Attribute: ELISA OD. Fill in for each entry.
- TARGET OF ASSAY: T1, human MIP-1-alpha (human, UniProt P10147 24-92, limits assumed)
- T1 construct: also called hMIP-1-alpha
- T1 sequence (looked up): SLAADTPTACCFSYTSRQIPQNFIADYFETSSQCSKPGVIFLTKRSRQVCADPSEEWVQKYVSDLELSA
- PROTOCOL: ELISA, coated antigen
Response body: numeric value in OD450, unit text excluded.

get_value(item= anti-MCP-1 mAb 1.6.1 (antibody, V domains shown) VH: QVQLVQSGAEVKKPGASVKVSCKVSGYTLTELSMHWVRQAPGKGLEWMGGFDPEDGETIYAQKFQGRVTMTEDTSTDTAYMELSSLRSEDTAVYYCATWYSGIYLAFDIWGQGTMVTVSS VL: EIVLTQSPDFQSVTPKEKVTITCRASQSIGSSLHWYQQKPDQSPKLLIKYASQSFSGVPSRFSGSGSGTDFTLTINSLEAEDAATYYCHQSSSLPHTFGGGTKVEIKR , readout=ELISA OD) returns 0.046

get_value(item= anti-MCP-1 mAb 3.4.1 (antibody, V domains shown) VH: QVQLVQSGAEVKKPGASVKVSCKVSGYTLTELSMHWVRQAPGKGLEWMGGFDPEDGETMYAQKFQGRVTMTEDTSTDTAYMELSSLRSEDTAVYYCATDDFWSGYFDYWGQGTLVTVSS VL: DIVMTQSPDSLAVSLDERATINCKSSQSVLYSPNQKNYLVWYQQKPGQPPKLLLYWASIRESGVPDRFSGSGSGTDFTLTISSLQAEDVAVYYCQQSYFTPWTFGQGTKVEIKR , readout=ELISA OD) returns 0.055

get_value(item= anti-MCP-1 mAb 5.1 (antibody, V domains shown) VH: EQSGGGVVQPGRSLRLSCAASGFTFSSYGMHWVRQAPGKGLEWVAVIWYDGNNKYYADSVKGRFTISRDTSKNTLYLQMNSLRAEDTAVYYCARDSSSYYYYGMDVWGQGTTVTVSS VL: NFMLTQPHSVSESPGKTVTISCTRSSGSIASNYVQWFQQRPGSSPTTVIYEDDQRPSGVPDRFCGSIDSSSNSASLTISGLRTEDEADYYCQSYDSSNHVVFGGGTKLTVLG , readout=ELISA OD) returns 0.043
